The reader will find reported Relative active concentration as compared to the initial state values listed item by item below.
Biological target: T1, human DR5 (recombinant, fusion format not stated for the assay) (human, UniProt O14763 56-207)
T1 construct: all antigen constructs carry ECD aa 56-207; also called hu DR5; huDR5
Assay: binding to human DR5 after stress test, pH 7.4, 2 weeks 40° C., against non-stressed initial material (defined 100%)
Number in %, nothing else.

* DR5TAA-0068 (antibody, human IgG1, kappa, L234A L235A, V domains shown, humanized variant of DR5TAA-0011; also called VH17/VL10) VH: QVQLVESGGGLVQPGGSLRLSCSASGFSISRYAMIWVRQAPGKGLEYVGFITSDSSAYYASWAKGRFTISRDNSKNTLYLQMNSLRAEDTAVYYCARYTYSDGTDLWGQGTLVTVSS VL: DIQMTQSPSSLSASVGDRVTITCRASQSISTYLSWYQQKPGQPPKRLIYKASTLASGVPSRFSGSGSGTDFTLTISSLQPEDFATYYCQPNSGIATYGAAFGGGTKVEIKR | 101
* DR5TAA-0073 (antibody, human IgG1, kappa, L234A L235A, V domains shown, humanized variant of DR5TAA-0011; also called VH17/VL3) VH: QVQLVESGGGLVQPGGSLRLSCSASGFSISRYAMIWVRQAPGKGLEYVGFITSDSSAYYASWAKGRFTISRDNSKNTLYLQMNSLRAEDTAVYYCARYTYSDGTDLWGQGTLVTVSS VL: DIQMTQSPSSLSASVGDRVTITCRASQSISTYLSWYQQKPGKAPKRLIYKASTLASGVPSRFSGSGSGTDFTLTISSLQPEDAATYYCQPNSGIATYGAAFGGGTKVEIKR | 101
* DR5TAA-0075 (antibody, human IgG1, kappa, L234A L235A, V domains shown, humanized variant of DR5TAA-0011; also called VH7/VL11) VH: EVQLVETGGGLIQPGGSLRLSCAASGFTVSRYAMIWVRQAPGKGLEYIGFITSDGSTYYADSAKGRFTISRDNSKNTLYLQMNSLRAEDTAVYYCARYTYSDGTDLWGRGTLVTVSS VL: DIQMTQSPSSLSASVGDRVTITCQASQSISTYLSWYQQKPGQPPKRLIYKASTLASGVPSRFSGSGSGTDFTLTISSLQPEDFATYYCQPNSGIATYGAAFGGGTKVEIKR | 99

Okay, now this binder:
Entry under test: DR5TAA-0074 (antibody, human IgG1, kappa, L234A L235A, V domains shown, humanized variant of DR5TAA-0011; also called VH7/VL10) VH: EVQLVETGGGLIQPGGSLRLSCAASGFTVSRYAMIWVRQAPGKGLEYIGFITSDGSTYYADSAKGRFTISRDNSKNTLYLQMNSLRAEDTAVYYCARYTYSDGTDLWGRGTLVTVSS VL: DIQMTQSPSSLSASVGDRVTITCRASQSISTYLSWYQQKPGQPPKRLIYKASTLASGVPSRFSGSGSGTDFTLTISSLQPEDFATYYCQPNSGIATYGAAFGGGTKVEIKR . Its Relative active concentration as compared to the initial state was 100

src = patent US20190062453A1
